Reported one-hybrid fitness for binding NBS DNA by item:
B1: Caulobacter ParB omega fusion; a variant is named by its letters at X, in order, B8GW30 (parent)
chain: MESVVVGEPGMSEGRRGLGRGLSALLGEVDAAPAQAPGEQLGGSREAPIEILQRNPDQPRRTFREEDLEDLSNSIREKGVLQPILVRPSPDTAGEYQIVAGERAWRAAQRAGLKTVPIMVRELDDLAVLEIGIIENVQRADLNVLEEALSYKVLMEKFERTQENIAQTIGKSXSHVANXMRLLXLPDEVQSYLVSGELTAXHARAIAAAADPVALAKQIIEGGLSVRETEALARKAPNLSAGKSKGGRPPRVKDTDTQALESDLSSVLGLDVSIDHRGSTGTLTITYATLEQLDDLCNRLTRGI

variants of: B1; test: one-hybrid fitness for binding NBS DNA (the Noc-binding site; scaled: cognate 1, non-cognate 0); higher = stronger binding; conditions: with NBS DNA site
Over roughly 81,000 sequences, “one-hybrid fitness for binding NBS DNA” has its median near -0.1; the highest 2% begin near 0.36. This excerpt belongs to a sample that is enriched for the highest values.

{"columns": ["mutant-id", "result"],
 "data": [
  ["PVLV", "≤ 0.2"],
  ["STRH", "≤ 0.2"]
]}

Q) Which one-hybrid fitness for binding NBS DNA value belongs to QYDY ?
A) ≤ 0.2
